- experimental_details: in vivo
- experimental_context: BALB/c, mouse, sc, 16 mg/kg, AUC0–24
assay_endpoint: AUC(0-t)
Could you kindly put the unit after your number?

q: Note AUC(0-t) for the compound shown: O=C1c2c(O)c(=O)ccn2N([C@@H]2c3ccccc3SCc3c2ccc(F)c3F)[C@@H]2COCCN12
a: 11100 ng·h/mL

====

- experimental_details: in vivo
- experimental_context: BALB/c, mouse, sc, 32 mg/kg, AUC0–24
assay_endpoint: AUC(0-t)
Could you kindly put the unit after your number?

q: Note AUC(0-t) for the molecule shown: O=C1c2c(O)c(=O)ccn2N([C@@H]2c3ccccc3SCc3c2ccc(F)c3F)[C@@H]2COCCN12
a: 8860 ng·h/mL

====

- experimental_details: in vivo
- experimental_context: BALB/c, mouse, sc, 8 mg/kg, Cmax
assay_endpoint: Cmax (ng/mL)
Give a bare numeral; the unit ng/mL is implied.

q: Note Cmax for the molecule shown: O=C1c2c(O)c(=O)ccn2N([C@@H]2c3ccccc3SCc3c2ccc(F)c3F)[C@@H]2COCCN12
a: 414

====

- experimental_details: in vivo
- experimental_context: BALB/c, mouse, sc, 0.5 mg/kg, Cmax
assay_endpoint: Cmax (ng/mL)
Give a bare numeral; the unit ng/mL is implied.

q: Note Cmax for the compound shown: O=C1c2c(O)c(=O)ccn2N([C@@H]2c3ccccc3SCc3c2ccc(F)c3F)[C@@H]2COCCN12
a: 66.1

====

- experimental_details: in vivo
- experimental_context: BALB/c, mouse, sc, 4 mg/kg, Cmax
assay_endpoint: Cmax (ng/mL)
Give a bare numeral; the unit ng/mL is implied.

q: Note Cmax for the molecule shown: O=C1c2c(O)c(=O)ccn2N([C@@H]2c3ccccc3SCc3c2ccc(F)c3F)[C@@H]2COCCN12
a: 417

====

- experimental_details: in vivo
- experimental_context: BALB/c, mouse, sc, 0.125 mg/kg, AUC0–24
assay_endpoint: AUC(0-t) (ng·h/mL)
Give a bare numeral; the unit ng·h/mL is implied.

q: Note AUC(0-t) for the compound shown: O=C1c2c(O)c(=O)ccn2N([C@@H]2c3ccccc3SCc3c2ccc(F)c3F)[C@@H]2COCCN12 [baloxavir acid]
a: 267

====

- experimental_details: in vivo
- experimental_context: BALB/c, mouse, sc, 64 mg/kg, AUC0–24
assay_endpoint: AUC(0-t)
Could you kindly put the unit after your number?

q: Note AUC(0-t) for the molecule shown: O=C1c2c(O)c(=O)ccn2N([C@@H]2c3ccccc3SCc3c2ccc(F)c3F)[C@@H]2COCCN12
a: 12600 ng·h/mL

====

- experimental_details: in vivo
- experimental_context: BALB/c, mouse, sc, 1 mg/kg, Cmax
assay_endpoint: Cmax

q: Note Cmax for the compound shown: O=C1c2c(O)c(=O)ccn2N([C@@H]2c3ccccc3SCc3c2ccc(F)c3F)[C@@H]2COCCN12
a: 124 ng/mL

====

- experimental_details: in vivo
- experimental_context: BALB/c, mouse, sc, 8 mg/kg, AUC0–24
assay_endpoint: AUC(0-t) (ng·h/mL)
Give a bare numeral; the unit ng·h/mL is implied.

q: Note AUC(0-t) for the compound shown: O=C1c2c(O)c(=O)ccn2N([C@@H]2c3ccccc3SCc3c2ccc(F)c3F)[C@@H]2COCCN12 [baloxavir acid]
a: 6380

====

- experimental_details: in vivo
- experimental_context: BALB/c, mouse, sc, 0.25 mg/kg, AUC0–24
assay_endpoint: AUC(0-t) (ng·h/mL)
Give a bare numeral; the unit ng·h/mL is implied.

q: Note AUC(0-t) for the compound shown: O=C1c2c(O)c(=O)ccn2N([C@@H]2c3ccccc3SCc3c2ccc(F)c3F)[C@@H]2COCCN12
a: 535
